Tested on: gastric injury induced by ethanol
assay-overview: Gastric ulcers induced by absolute ethanol in rats
Type: in vivo, Sprague-Dawley derived male rats
applied-conditions: 30 mg/kg P.O., 30 min before absolute ethanol 1 ml/rat; scored 1 h later; 5 rats
Where a name gives a salt, the structure may show the parent alone.
In this section, each of the compounds is paired with its reported Average (gastric ulceration score 0-4).
measurement-type: Average (gastric ulceration score 0-4)

compound="CC(=O)OCCC(C)CCC=C(C)C (centres unmarked) [MIC-39, Citronellyl acetate]" reported_result=2.4
compound="CC(C)=CCCC(C)CCO (centres unmarked) [MIC-31, Citronellol]" reported_result=1
compound="CC(C)=CCC[C@H](C)CCBr [MIC-36, (s)-(+)-Citronellyl bromide]" reported_result=2
compound="C/C=C(\\C)C(=O)OCCC(C)CCC=C(C)C (centres unmarked) [MIC-44, Citronellyl tiglate]" reported_result=2.8
compound="CC(C)=CCCC(C)CCO (stereo not drawn) [MIC-45, (−)-β-Citronellol]" reported_result=2.6
compound="CC(C)=CCCC(C)CCO (centres unmarked) [MIC-42, Citronellol]" reported_result=1.6
compound="CC(C)=CCCC(C)CCOC(=O)C(C)C (centres unmarked) [MIC-38, Citronellyl isobutryrate]" reported_result=3.2
compound="CC(C)=CCCC(C)CC(=O)O (centres unmarked)" reported_result=2
compound="CC(C)=CCC[C@@H](C)CCBr [MIC-43, (R)-(−)-Citronellyl bromide]" reported_result=2.4
compound="CC(C)=CCCC(C)CCOC=O (centres unmarked) [MIC-41, Citronellyl formate]" reported_result=3.2
compound="CCC(=O)OCCC(C)CCC=C(C)C (centres unmarked) [MIC-40, Citronellyl propionate]" reported_result=3.4
